- TGT: human RXFP1 (Homo sapiens, UniProt Q9HBX9)
- PROCEDURE SUMMARY: RXFP1 Hu cAMP (Test A)
- Assay type: cell-based
- Design: expressed in transfected cells; host or cells: Jump-In T-REx CHO-K1 cells (ThermoFisher), induced with 10 ng/ml doxycycline for 24 h
- STUDY CONDITIONS: RXFP1 Hu cAMP; read-out: Test A EC50
ENDPOINT: EC50 (nM)

>  <COMPOUND>
COc1cc(C#N)c(O[C@H]2CC[C@@](C)(C(=O)O)CC2)cc1C(=O)NC1C2CCC(O2)C1C(=O)NCC1(C)CCC1 (single isomer, unassigned) [Example 534]

>  <UNIT ABBREVIATION>
nM

>  <MEAS VALUE>
99

$$$$

(1) COc1cc(F)c(-c2cccc(CCC(=O)O)c2)cc1C(=O)N[C@H]1[C@@H](C(=O)Nc2cccc(S(=O)(=O)C(F)(F)F)c2)[C@@H]2C=C[C@H]1C2 (racemic) [Example 282]
(2) COc1cc(F)c(O[C@H]2CC[C@@H](C(=O)O)CC2)cc1C(=O)N[C@@H]1[C@H]2CC[C@H](C2)[C@@H]1C(=O)Nc1ccc(C)c(C(F)(F)F)c1 [Example 192]
(3) COc1cc(F)c(-c2ccc(C(=O)O)cc2)cc1C(=O)N[C@@H]1[C@H]2CC[C@H](C2)[C@@H]1C(=O)Nc1cccc(S(=O)(=O)C(F)(F)F)c1 [Example 250]
(4) COc1cc(F)c(-c2cccc(C(=O)O)c2)cc1C(=O)N[C@@H]1CCC[C@@H]1C(=O)Nc1cccc(S(=O)(=O)C(F)(F)F)c1 (racemic) [Example 300]
Q. Sort the compounds on EC50; start with the lowest figure. Please express your ranking as an ordered list of the labels.
A. 2, 3, 1, 4
(2: 35 nM, 3: 190 nM, 1: 490 nM, 4: 3900 nM)

* * *

- PROCEDURE SUMMARY: Rat Hepatocyte Stability (Test E)
- Type: in vitro ADME
- STUDY CONDITIONS: rat, hepatocytes, geometric mean if run multiple times
ENDPOINT: hepatocyte CLint (µL/min/1e6 cells)

>  <STRUCTURE STRING>
COc1cc(C(F)F)c(O[C@H]2CC[C@@](C)(C(=O)O)CC2)cc1C(=O)N[C@@H]1[C@H]2CC[C@H](C2)[C@@H]1C(=O)NCC1(C)CCC1

>  <UNIT ABBREVIATION>
µL/min/1e6 cells

>  <hepatocyte CLint>
16

$$$$

(a) COc1cc(C#N)c(O[C@H]2CC[C@@](C)(C(=O)O)CC2)cc1C(=O)N[C@@H]1[C@H]2CC[C@H](C2)[C@@H]1C(=O)N[C@]12CC3CC(C[C@@](O)(C3)C1)C2
(b) COc1cc(F)c(O[C@H]2CC[C@@](C)(C(=O)O)CC2)cc1C(=O)N[C@@H]1CCC[C@@H]1C(=O)NCC1(C)CC1
(c) COc1cc(Cl)c(O[C@H]2CC[C@@](C)(C(=O)O)CC2)cc1C(=O)N[C@@H]1[C@H]2CC[C@H](C2)[C@@H]1C(=O)NCC(C)(C)C(F)(F)F
(d) COc1cc(F)c(O[C@H]2CC[C@@H](C(=O)O)CC2)cc1C(=O)N[C@@H]1[C@H]2CC[C@H](C2)[C@@H]1C(=O)Nc1cccc(C2CC2)c1
Q. Ascending by hepatocyte CLint, please. // format: requested-order list of labels
A. c, b, a, d
(c: 7.1 µL/min/1e6 cells, b: 14 µL/min/1e6 cells, a: 30 µL/min/1e6 cells, d: 120 µL/min/1e6 cells)

* * *

- PROCEDURE SUMMARY: Solubility (Test F)
- Format: physicochemical
- STUDY CONDITIONS: arithmetic mean if run multiple times
ENDPOINT: solubility (µM)

>  <COMPOUND>
COc1cc(F)c(O[C@H]2CC[C@@](C)(C(=O)O)CC2)cc1C(=O)N[C@@H]1COCC[C@@H]1C(=O)Nc1cccc(S(=O)(=O)C(F)(F)F)c1 (relative stereo)

>  <UNIT ABBREVIATION>
µM

>  <solubility>
900

$$$$
>  <COMPOUND>
COc1cc(Cl)c(O[C@H]2CC[C@@](C)(C(=O)O)CC2)cc1C(=O)N[C@@H]1[C@H]2CC[C@H](C2)[C@@H]1C(=O)NCC1(C)CCC1

>  <UNIT ABBREVIATION>
µM

>  <solubility>
470

$$$$
>  <COMPOUND>
COc1cc(F)c(O[C@H]2CC[C@@](CC#N)(C(=O)O)CC2)cc1C(=O)N[C@@H]1[C@H]2CC[C@H](C2)[C@@H]1C(=O)NCC1(C)CCC1

>  <UNIT ABBREVIATION>
µM

>  <solubility>
990

$$$$
>  <COMPOUND>
COc1cc(F)c(O[C@H]2CC[C@@H](C(=O)O)CC2)cc1C(=O)N[C@@H]1[C@H]2CC[C@H](C2)[C@@H]1C(=O)Nc1c(F)c(F)c(F)c(F)c1F

>  <UNIT ABBREVIATION>
µM

>  <solubility>
330

$$$$

(A) CCC(CC)CNC(=O)[C@H]1[C@@H]2CC[C@@H](C2)[C@H]1NC(=O)c1cc(O[C@H]2CC[C@@H](C(=O)O)CC2)c(F)cc1OC
(B) CCC1(CNC(=O)[C@H]2[C@@H]3CC[C@@H](C3)[C@H]2NC(=O)c2cc(O[C@H]3CC[C@@](C)(C(=O)O)CC3)c(C#N)cc2OC)CCC1
Q. Compare reported solubility values for A and B . Which is lower? # respond with the chosen item's label
A. B
(B: 540 µM, A: 1000 µM)

* * *

- TGT: human RXFP1 (Homo sapiens)
- Sequence (Q9HBX9 1-757): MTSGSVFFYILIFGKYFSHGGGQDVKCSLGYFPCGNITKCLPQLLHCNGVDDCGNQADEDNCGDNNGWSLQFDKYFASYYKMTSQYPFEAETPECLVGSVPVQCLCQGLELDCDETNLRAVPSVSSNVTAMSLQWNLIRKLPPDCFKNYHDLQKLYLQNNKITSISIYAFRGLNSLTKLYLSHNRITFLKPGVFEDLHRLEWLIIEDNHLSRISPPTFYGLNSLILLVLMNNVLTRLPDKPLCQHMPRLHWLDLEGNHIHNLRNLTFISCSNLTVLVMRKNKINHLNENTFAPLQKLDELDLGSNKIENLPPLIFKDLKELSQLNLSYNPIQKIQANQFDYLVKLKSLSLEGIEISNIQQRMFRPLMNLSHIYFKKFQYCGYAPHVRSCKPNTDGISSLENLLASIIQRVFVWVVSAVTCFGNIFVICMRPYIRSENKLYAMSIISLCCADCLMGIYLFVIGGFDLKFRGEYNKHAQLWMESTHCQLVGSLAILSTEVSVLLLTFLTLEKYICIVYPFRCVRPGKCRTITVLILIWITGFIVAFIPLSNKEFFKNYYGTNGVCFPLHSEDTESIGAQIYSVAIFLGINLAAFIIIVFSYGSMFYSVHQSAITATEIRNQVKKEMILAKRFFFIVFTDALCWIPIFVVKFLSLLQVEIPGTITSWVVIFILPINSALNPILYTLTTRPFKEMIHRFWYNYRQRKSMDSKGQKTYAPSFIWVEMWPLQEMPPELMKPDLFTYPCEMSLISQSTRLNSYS
- PROCEDURE SUMMARY: RXFP1 Hu cAMP (Test A)
- Assay type: cell-based
- Set-up: expressed in transfected cells; host or cells: Jump-In T-REx CHO-K1 cells (ThermoFisher), induced with 10 ng/ml doxycycline for 24 h
- STUDY CONDITIONS: RXFP1 Hu cAMP; read-out: Test A EC50
ENDPOINT: EC50 (nM)

Reference set (3 entries):
>  <MOLECULE>
COc1cc(F)c(O[C@H]2CC[C@@H](C(=O)O)CC2)cc1C(=O)N[C@@H]1[C@H]2CC[C@H](C2)[C@@H]1C(=O)Nc1cc(C(F)(F)F)ccc1Cl [Example 26]

>  <UNIT ABBREVIATION>
nM

>  <EC50>
190

$$$$
>  <MOLECULE>
COc1cc(F)c(OC2CCC(CO)(C(=O)O)CC2)cc1C(=O)N[C@H]1C[C@H](OC)C[C@H]1C(=O)NCC(C)(C)C (relative stereo) [Example 549]

>  <UNIT ABBREVIATION>
nM

>  <EC50>
1300

$$$$
>  <MOLECULE>
COc1cc(C#N)c(O[C@H]2CC[C@@](C)(C(=O)O)CC2)cc1C(=O)Nc1cc(Cl)ccc1C(=O)NCC(C)(C)F [Example 164]

>  <UNIT ABBREVIATION>
nM

>  <EC50>
130

$$$$

(A) COc1cc(F)c(O[C@H]2CC[C@@H](C(=O)O)CC2)cc1C(=O)N[C@@H]1[C@H]2CC[C@H](C2)[C@@H]1C(=O)Nc1ccc(F)c(C(F)(F)F)c1 [Example 179]
(B) CCCCCCNC(=O)[C@H]1[C@@H]2CC[C@@H](C2)[C@H]1NC(=O)c1cc(O[C@H]2CC[C@@](C)(C(=O)O)CC2)c(C#N)cc1OC [Example 117]
(C) COc1cc(F)c(O[C@H]2CC[C@@](C)(C(=O)O)CC2)cc1C(=O)N[C@@H]1COCC[C@@H]1C(=O)Nc1ccc(F)c(S(F)(F)(F)(F)F)c1 (racemic) [Example 349]
Q. In this exercise, place the 3 molecules in ascending sequence of their recorded EC50. Please list each label once, in the requested order.
A. A, B, C
